Tested on: B16-F10
method summary: Induction of apoptosis in mouse B16F10 cells assessed as caspase-3 activation using Ac-DEVD-pNA as substrate by spectrophotometric analysis
Assay type: functional
The reader will find reported Activity values listed item by item below.
readout type: Activity (%)

>>> df
                                   compound  readout_number
0  O=C1C(Oc2ccccc2)C(c2ccco2)N1c1nc2ccccc2s1 (racemic)              93
1  COc1ccc(N2C(=O)[C@@H](OC)[C@H]2c2ccc([N+](=O)[O-])cc2)cc1 (relative stereo)              88
2  COc1ccc(N2C(=O)[C@@H](Oc3ccccc3)[C@H]2c2ccc(C)cc2)cc1 (relative stereo)             100
3  COc1cc([C@@H]2c3cc4c(cc3[C@H](O)[C@H]3COC(=O)[C@H]23)OCO4)cc(OC)c1OC [PODOFILOX]             100
